In this section we review reported IC50 values for a set of compounds.
# Test system: Pim-2 (Homo sapiens (Human), UniProt Q9P1W9)
# Sequence (Q9P1W9 whole entry): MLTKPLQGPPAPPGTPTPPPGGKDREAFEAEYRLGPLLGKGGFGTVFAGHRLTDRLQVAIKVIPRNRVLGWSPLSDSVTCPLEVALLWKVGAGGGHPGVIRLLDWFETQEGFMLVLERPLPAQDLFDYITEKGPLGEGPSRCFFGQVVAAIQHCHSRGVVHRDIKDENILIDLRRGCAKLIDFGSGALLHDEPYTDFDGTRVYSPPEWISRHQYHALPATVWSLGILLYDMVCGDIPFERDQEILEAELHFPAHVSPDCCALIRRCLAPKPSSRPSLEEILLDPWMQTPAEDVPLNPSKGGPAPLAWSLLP

Field: example entries. Status: answers known.
Lookup result for C[C@@H]1C[C@H](N)C[C@H](c2ccncc2NC(=O)c2c(N)oc3cc(C4CC4)cnc23)C1 [Example 133] ; measured IC50: ≤ 10 nM

Lookup result for C[C@@H]1C[C@H](N)CN(c2ccncc2NC(=O)c2c(N)oc3cc(C4CCOC4)cnc23)C1 (some centres unmarked) [Example 122] ; measured IC50: ≤ 10 nM

Lookup result for COc1cnc2c(C(=O)Nc3cnccc3N3CCC[C@H](N)C3)c(N)sc2c1 [Example 12] ; measured IC50: 100 to 1000 nM

Further cases:
Lookup result for Nc1oc2cc(Cl)cnc2c1C(=O)Nc1cnccc1N1C[C@@H](N)C[C@@H](C(F)(F)F)C1 [Example 62] ; measured IC50: 10 to 100 nM

Lookup result for Cn1ncc(NC(=O)c2c(N)oc3c(Cl)ccnc23)c1N1CCCC(N)CC1 (centres unmarked) [Example 58] ; measured IC50: 100 to 1000 nM

Lookup result for C[C@@H]1C[C@H](N)CN(c2ccncc2NC(=O)c2c(N)oc3cc(C4CCOCC4)cnc23)C1 [Example 95] ; measured IC50: 10 to 100 nM

Lookup result for CCc1cnc2c(C(=O)Nc3cnccc3N3C[C@H](C)C[C@H](N)C3)c(N)oc2c1 [Example 117] ; measured IC50: ≤ 10 nM

Lookup result for Cn1ncc(NC(=O)c2c(N)oc3cc(Cl)cnc23)c1N1CCCC(N)CC1 (centres unmarked) [Example 57] ; measured IC50: 100 to 1000 nM

Lookup result for COc1ccnc2c(C(=O)Nc3cnccc3N3CCC[C@H](N)C3)c(N)sc12 [Example 16] ; measured IC50: 100 to 1000 nM

Lookup result for Nc1oc2cc(C3CC3)cnc2c1C(=O)Nc1cnccc1N1C[C@@H](N)C[C@@H](C(F)(F)F)C1 [Example 113] ; measured IC50: ≤ 10 nM

Lookup result for Nc1oc2cc(C(F)(F)F)cnc2c1C(=O)Nc1cnccc1N1C[C@@H](N)[C@H](O)[C@@H](C2CC2)C1 [Example 129] ; measured IC50: 10 to 100 nM
